Measured values drawn from ChEMBL document CHEMBL1201862 for this set.

Test system: NCI-H23
Assay: NCI tumour cell line growth inhibition, 48 h
The source made the active and inactive calls. Rule as the data show it: active = GI50 up to about 1.1 µM and inactive = higher.
# GI50 per record follows
experimentalEndpoint: GI50

In [3]: df
Out[3]:
                                   molecule        valuereported
0  COC(=O)c1c2c(c3[nH]c4ccccc4c3c1C(=O)OC)C(=O)C1=C(C2=O)C2(Cl)C(Cl)C(Cl)C1(Cl)C2(Cl)Cl (centres undefined)    1.7 µM (inactive)
1   O=c1cc(N2CCCC2)[nH]c(=O)n1-c1ccc(Cl)cc1  > 100 µM (inactive)
2  CCOC(=O)CCC(NC(=O)c1ccc(OCc2nc3ccccc3n3cccc23)cc1)C(=O)OCC (centres undefined)   29.9 µM (inactive)
3  NN/C(=N\c1ccc(Cl)cc1)NS(=O)(=O)c1ccc(S(=O)(=O)c2ccccc2)s1   20.4 µM (inactive)
4            N=c1oc2ccccc2cc1C(=O)Nc1ccccn1  > 100 µM (inactive)
5  CN(C)CCCn1c(-c2ccc(Br)cc2)cs/c1=N\c1ccccc1   10.7 µM (inactive)
6  O=[N+]([O-])C1=Cc2c(O)ccc(O)c2C2OC=CC12 (centres undefined)   15.5 µM (inactive)
7                     O=S(O)CCCSSSCCCS(=O)O  > 100 µM (inactive)
8     Cc1cc(C)nc(Sc2c([N+](=O)[O-])ncn2C)n1  > 100 µM (inactive)

###

Tested on: A498
Test: NCI tumour cell line growth inhibition, 48 h
Active and inactive are the calls of the source. Rule as the data show it: active = GI50 up to about 1.1 µM and inactive = higher.
# GI50 per record follows
experimentalEndpoint: GI50

>>> df
                           compound  assayedsystem  experimentalendpoint        valuereported
0           Cc1n[nH]c(=O)n1-n1cccc1           A498                  GI50  > 100 µM (inactive)
1  O=C1CCCCCCCCCCOC(=O)CCCCCCCCCCO1           A498                  GI50  > 100 µM (inactive)
2   CCOC(=O)c1nc2cc(Cl)ccc2[nH]c1=O           A498                  GI50  > 100 µM (inactive)
3      O=c1c2cnccc2cc2c3ccccc3ccn12           A498                  GI50  > 100 µM (inactive)

###

# GI50 per record follows
System: K562
Assay: NCI tumour cell line growth inhibition, 48 h
Calls of active or inactive are those of the source. Cut-off read from the data, not from the text of the source: active = GI50 up to about 1.1 µM and inactive = higher.

compound	GI50
O=C1c2ccccc2C(=O)C2NC(CCCCCSSCCCCCC3=NC4C(=O)c5ccccc5C(=O)C4N3)=NC12 (configuration not stated)	> 100 µM (inactive)
Cc1ccc2[nH]c3c(c2c1)CCC/C3=N/N=C(N)N	2.08 µM (inactive)
COC(=O)c1cc(O)nc(O)n1	> 100 µM (inactive)
CN(C)CCNc1ncnc2[nH]c(-c3ccc4ccccc4c3)nc12	> 100 µM (inactive)
COc1ccc(NC(=S)c2ccc([N+](=O)[O-])o2)cc1	2.07 µM (inactive)
C[N+](C)(C)CC(=O)N/N=C(\C(=O)NC1=C(Cl)C(=O)c2ccccc2C1=O)C(C#N)c1csc(-c2ccc([N+](=O)[O-])cc2)n1 (configuration not stated)	> 100 µM (inactive)
Cc1ccccc1C(O)(c1nccn1C)c1nccn1C	> 100 µM (inactive)

###

# GI50 per record follows
Test system: SNB-19
Assay: NCI tumour cell line growth inhibition, 48 h
The source made the active and inactive calls. No stated cut-off is given here; in the data, active = GI50 up to about 1.1 µM and inactive = higher.
experimentalEndpoint: GI50

>>> print(df.to_string())
                                   molecule  assayedsystem        valuereported
0           CCOC(=O)C1=C(O)C(=O)c2ccsc2C1=O         SNB-19  > 100 µM (inactive)
1  CCC1C(=O)OCc2c1cc1n(c2=O)CCC12OCCO2 (stereo unspecified)         SNB-19  > 100 µM (inactive)
2  COP(=O)(OC)C(O)/C=C(\Cl)c1ccc(Cl)cc1 (stereo unspecified)         SNB-19   75.5 µM (inactive)
3  CC1=CC(C/C(C)=C/COc2ccc3ccc(=O)oc3c2)OC1=O (stereo unspecified)         SNB-19  > 100 µM (inactive)
4  C[N+](C)(C)CC(=O)N/N=C(\C(=O)NC1=C(Cl)C(=O)c2ccccc2C1=O)C(C#N)c1csc(-c2ccc([N+](=O)[O-])cc2)n1 (stereo unspecified)         SNB-19  > 100 µM (inactive)
5  O=S1(=O)CSc2ccc3ccccc3c2-c2c1ccc1ccccc21         SNB-19  > 100 µM (inactive)

###

Test system: MCF7
Assay: NCI tumour cell line growth inhibition, 48 h
Active and inactive are the calls of the source. No stated cut-off is given here; in the data, active = GI50 up to about 1.1 µM and inactive = higher.
Classes used: active, inactive

compound	assignedCategory
COc1ccc(/N=N/C(=N/NC(=O)c2ccccc2)c2ccc(N(CCC#N)CCC#N)cc2C)cc1	inactive
O=C(O)C1C2CCC(O2)C1C(=O)Nc1cccc2cccnc12 (stereo not drawn)	inactive
CC(C)=CCc1c2c(c3occ(-c4ccc(O)cc4)c(=O)c3c1O)CC(C(C)(C)O)O2 (stereo not drawn)	inactive
Cn1cccc1-c1ccc(-c2ccc(CO)[se]2)[se]1	active
CCOC(=O)c1csc(NC(=O)CN2CCCC2)n1	inactive
CCOC(=O)c1cc(C2CCN(c3ccccc3)C2=O)c(C(=O)/C=C(/C)N)[nH]1 (stereo not drawn)	inactive
O=C(O)CCC1C(=O)C2CCN1CC2 (stereo not drawn)	inactive
CCCc1c(O)nc2ccccc2c1O	inactive
CN(Cc1c2ccccc2cc2ccccc12)S(=O)(=O)c1ccc(-c2c3nc(c(-c4ccc(S(=O)(=O)N(C)Cc5c6ccccc6cc6ccccc56)cc4)c4ccc([nH]4)c(-c4ccc(S(=O)(=O)N(C)Cc5c6ccccc6cc6ccccc56)cc4)c4nc(c(-c5ccc(S(=O)(=O)N(C)Cc6c7ccccc7cc7ccccc67)cc5)c5ccc2[nH]5)C=C4)C=C3)cc1	inactive
COc1cc(C2SC(=N)Nc3c2c(C)nn3C(=O)Cc2ccccc2)cc(OC)c1OC (stereo not drawn)	inactive
COc1ccc2c(c1)-c1[nH]c3ccc(OC)cc3c1CC2	inactive
O=C1c2ccccc2C(=O)C2NC(CCCCCSSCCCCCC3=NC4C(=O)c5ccccc5C(=O)C4N3)=NC12 (stereo not drawn)	inactive
O=C(NCCCCCCCCNC(=O)c1cc(-c2ccccc2)nc2ccccc12)c1cc(-c2ccccc2)nc2ccccc12	inactive

###

Test system: OVCAR-3
Test: NCI tumour cell line growth inhibition, 48 h
Calls of active or inactive are those of the source. Rule as the data show it: active = GI50 up to about 1.1 µM and inactive = higher.
experimentalEndpoint: GI50

>>> df
                                    molecule        valuereported
 0  CCOC(=O)CCC(NC(=O)c1ccc(OCc2nc3ccccc3n3cccc23)cc1)C(=O)OCC (centres undefined)   63.7 µM (inactive)
 1  N/C(=N\c1ccc(Cl)cc1)NS(=O)(=O)c1ccc(S(=O)(=O)c2ccccc2)s1   25.4 µM (inactive)
 2  Cc1cn(C2C=CC(COP(=O)(OCC3=CC(=O)c4ccccc4C3=O)N(C)CCCCCl)O2)c(=O)[nH]c1=O (centres undefined)    3.5 µM (inactive)
 3  O=C(OCCN=c1c2ccccc2ccc2ccccc12)c1ccc([N+](=O)[O-])cc1  > 100 µM (inactive)
 4          OCn1nc2c(C3OCCO3)cc3ccccc3n2c1=S  > 100 µM (inactive)
 5  CN(C)CCNc1ncnc2[nH]c(-c3ccc4ccccc4c3)nc12  > 100 µM (inactive)
 6       CN1C(=O)CSC1=S [3-METHYL-RHODANINE]  > 100 µM (inactive)
 7        NC(=O)NNCc1c(-c2ccccc2)no[n+]1[O-]  > 100 µM (inactive)
 8  CCOC(=O)CC(NCc1ccc(/N=C/c2nc3ccc(C(F)(F)F)cc3nc2-c2ccccc2)cc1)C(=O)OCC (centres undefined)  > 100 µM (inactive)
 9  N#CC(CCN1CCC(Nc2ccccc2)(c2nnnn2C2CCCCC2)CC1)(c1ccccc1)c1ccccc1  > 100 µM (inactive)
10  CCCCOC(=O)Nc1ccc(S(=O)(=O)Nc2c(Cl)cccc2Cl)cc1   26.3 µM (inactive)
11  COC(=O)C1=C(C(=O)OC)C2(C)OC1C(=O)C21CC1 (centres undefined)   22.1 µM (inactive)
12  O=C(N/N=C(/CCN1CCCC1)CC(c1ccccc1)c1c(O)c2ccccc2oc1=O)c1ccncc1 (centres undefined)  > 100 µM (inactive)
13  COC12OC3(C4OC41)C(C(=O)O[C@H]3CO[Si](C)(C)C(C)(C)C)C2C(=O)Oc1ccccc1 (some centres undefined)  > 100 µM (inactive)

###

Tested on: HL-60
Assay: NCI tumour cell line growth inhibition, 48 h
The source made the active and inactive calls. No stated cut-off is given here; in the data, active = GI50 up to about 1.1 µM and inactive = higher.
# GI50 per record follows
experimentalEndpoint: GI50

>>> df
                                   compound  experimentalendpoint       valuereported
0  CCOC(=O)NC(Nc1ccc(F)c(F)c1)(C(=O)OCC)C(F)(F)F (centres undefined)                  GI50  20.4 µM (inactive)
1  CC(=O)OC1CC2C(C)(C)C(=O)C=C[C@]2(C)C2CCC3(C)C(c4ccoc4)C(=O)C4OC43[C@]12C (some centres undefined)                  GI50  12.4 µM (inactive)
2  O=C(c1ccccc1)c1cc(Cl)ccc1NCn1nnc2ccccc21                  GI50  25.2 µM (inactive)
3  CC(C)c1cccc(C(C)C)c1NC1=CC(=O)C(=O)c2ccccc21                  GI50  77.8 µM (inactive)
